molecular target: hemagglutinin (HA) of influenza virus H7N3 A/NIBRG/60 (A/mallard/Netherlands/12/00) (influenza A virus); test: cell-based or functional assay
QUANTITY_NAME: average neutralization titer (nM)
Answers are plain numbers, in nM.

(Q) Bench note: what average neutralization titer did MD2320 (bispecific antibody) EVQLVESGGGLVQAGDSLRISCAASGRTLSIYSMGWFRQAPGKEREFVATIGWNSGRTFYPDSLKGRFTISRDNARNTLYLQMNNLRPEDTAVYYCAAAKGPLRLSSQADYWGQGTQVTVSSGGGGSGGGGSEVQLVESGGGLVQPGGSLRLSCAVSISIFDIYAMDWYRQAPGKQRDLVATSFRDGSTNYADSVKGRFTISRDNAKNTLYLQMNSLKPEDTAVYLCHVSLYRDPLGVAGGMGVYWGKGALVTVSSGGGGSGGGGSEVQLVESGGGLVQPGGSLRLSCAATGFTLENKAIGWFRQTPGSEREGVLCISKSGSWTYYTDSMRGRFTISRDNAENTVYLQMDSLKPEDTAVYYCATTTAGGGLCWDGTTFSRLASSWGQGTQVTVSS show?
(A) 15.3
